Values compiled from PubChem BioAssay AID2060604.

Test system: 379773-124-R-J2-PDC complex spheroids, viability % test/control;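 further: compound exposure lasted seven days before the viability readout; 100% = DMSO vehicle control wells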
test-summary: Anticancer human tumor 379773-124-R-J2-PDC patient-derived endometrial carcinoma cell line growth inhibition [CLK]
measurement-conditions: second compound 10 µM; first compound 1 µM; hits give low values
Please respond with reported viability, T/C for every item in the list.

// viability, T/C lookup, key: COc1cccc2c1C(=O)c1c(O)c3c(c(O)c1C2=O)CC(O)(C(=O)CO)CC3OC1CC(N)C(O)C(C)O1 (stereo not given) + CNC(=O)c1ccc(Nc2nc(OC3CCCC3)c3c(-c4ccc5nc(C)oc5c4)c[nH]c3n2)c(OC)c1
1.07%

If you can, please state the reported viability, T/C value of CC(Nc1ccc2c(c1)OCCn1cc(N3C(=O)OCC3C(F)F)nc1-2)C(N)=O (stereo not given) + CNC(=O)c1ccc(Nc2nc(OC3CCCC3)c3c(-c4ccc5nc(C)oc5c4)c[nH]c3n2)c(OC)c1 .
18.6%

Value lookup for viability, T/C; key = CC1COCCN1c1cc(C2(S(C)(=N)=O)CC2)nc(-c2ccnc3[nH]ccc23)n1 (stereo not given) + CNC(=O)c1ccc(Nc2nc(OC3CCCC3)c3c(-c4ccc5nc(C)oc5c4)c[nH]c3n2)c(OC)c1
24.9%

For the molecule shown here, C#Cc1c(F)ccc2cc(O)cc(-c3ncc4c(N5CC6CCC(C5)N6)nc(OCC56CCCN5CC(F)C6)nc4c3F)c12 (stereo not given) + CNC(=O)c1ccc(Nc2nc(OC3CCCC3)c3c(-c4ccc5nc(C)oc5c4)c[nH]c3n2)c(OC)c1 , give the reported viability, T/C.
27.1%

Please give the measured viability, T/C for this molecule: CCN1CCN(Cc2ccc(Nc3ncc(F)c(-c4cc(F)c5nc(C)n(C(C)C)c5c4)n3)nc2)CC1 + CN1CCN(c2cc(C(=O)Nc3cc4cc(-c5cnn(C)c5)ccc4cn3)ccn2)CC1
0.16%
